All figures here come from PubChem BioAssay (NCATS).

Experiment: Cell Viability - LYMP2-009 (AID 968);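 also: cells exposed to compound for 24 h at 37 °C; nearly all actives have a fitted effect of over 55% in size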
Conditions: LYMP2-009 lymphoblastoid cell viability; series mostly up to 92.2 µM
Records with an inconclusive call do not appear. The source made the active and inactive calls. Calls follow the shape of the dose curve; as a rule, active = well fitted cell-killing curve with a large enough effect; inconclusive = small, poorly fitted or top-dose-only effect; inactive = flat fitted curve, though single readings scatter.
Answer with one of the outcomes given here: active, inactive

Some solved entries appear below for comparison.
Asked: Record request — test call for `IC(I)I`
Given back: inactive

Asked: Input `CCOC(C)=O`
Given back: inactive

Asked: Input `CCCCCCCC/C=C\CCCCCCCC(=O)O`
Given back: inactive

Asked: Input `CCOc1ccc2c(c1)C(C)=CC(C)(C)N2`
Given back: inactive

Asked: Input `O=C(O)CCC(=O)C(=O)O`
Given back: inactive

Continuing:
Asked: Record request — test call for `O=S(=O)(O)O`
Given back: inactive

Asked: Input `CCCCCCCC(=O)O`
Given back: inactive

Asked: Input CC(O)CO (configuration not stated)
Given back: inactive

Asked: Input `O=CCCCC=O`
Given back: active

Asked: Input `CC(C)=O`
Given back: inactive

Asked: Input `CC1=C2[C@@H]([C@H](C)CC[C@H]2/C=C(\C)C(=O)O)[C@H](O)C1`
Given back: inactive

Asked: Input `Nc1ccn([C@H]2CS[C@@H](CO)O2)c(=O)n1`
Given back: inactive

* * *

System: PC15
Assay: qHTS profiling for inhibitors of Plasmodium falciparum proliferation (AID 504749); also: nearly all actives have a fitted effect of over 60% in size; also: potency is read from the fitted curve at half-maximal effect
Conditions: P. falciparum in erythrocytes, SYBR Green DNA, 72 h; series mostly up to 28.7 µM
Results filed as inconclusive are left out. The source made the active and inactive calls. Calls follow the shape of the dose curve; as a rule, active = well fitted inhibition curve with a large enough effect; inconclusive = small, poorly fitted or top-dose-only effect; inactive = flat fitted curve, though single readings scatter.
Assay metric: Potency

Asked: Value lookup for Potency; key = `CCCCCCOc1ccc(C(=N)N(CCCC)CCCC)c2ccccc12`
Given back: 10000 nM (active)

Asked: Input COC(=O)[C@H]1[C@H]2CC3c4[nH]c5ccccc5c4CCN3C[C@@H]2CC[C@@H]1O (some centres undefined)
Given back: inactive

Asked: Input CCCCCC(CC)COC(=O)CC(C(=O)OCC(CC)CCCC)S(=O)(=O)O (centres undefined)
Given back: inactive

Asked: Input `O=C(O)CCC(=O)C(=O)O`
Given back: inactive

Consider the following items and state reported Potency for each.
1. Cc1ccccc1
2. CCCCCCCC(=O)O
3. CC(C(=O)O)c1ccc(N2Cc3ccccc3C2=O)cc1 (centres undefined)
4. O=C(O)CN(CCN(CC(=O)O)CC(=O)O)CC(=O)O
5. CO[C@H](C(=O)[C@@H](O)[C@@H](C)O)C1Cc2cc3cc(O[C@H]4C[C@@H](O[C@H]5C[C@@H](O)[C@H](O)[C@@H](C)O5)[C@@H](O)[C@@H](C)O4)c(C)c(O)c3c(O)c2C(=O)[C@H]1O[C@H]1C[C@@H](O[C@H]2C[C@@H](O[C@H]3C[C@](C)(O)[C@H](O)[C@@H](C)O3)[C@H](O)[C@@H](C)O2)[C@H](O)[C@@H](C)O1 (some centres undefined)
6. CC(C)(C)C(=O)OCOC(=O)[C@@H]1N2C(=O)[C@@H](N=CN3CCCCCC3)[C@H]2SC1(C)C
7. CC1=CCC(C(C)(C)O)CC1 (centres undefined)

Given back:
inactive
inactive
inactive
inactive
316 nM (active)
inactive
inactive

Consider the following items and state reported Potency for each.
1. COC(=O)[C@H]1[C@H]2C[C@@H]3c4[nH]c5ccccc5c4CCN3C[C@H]2C[C@@H](OC(=O)c2cc(OC)c(OC)c(OC)c2)[C@@H]1OC
2. CCCCCCCCCCCCCC[n+]1ccc(C)cc1
3. CC1(C)C(C=C(Cl)Cl)C1C(=O)OCc1cccc(Oc2ccccc2)c1 (centres undefined)
4. COc1ccc2c3c1O[C@H]1C[C@@H](O)C=C[C@@]31CCN(C)C2
5. O=C1C(=O)c2ncccc2-c2cccnc21
6. COCC(=O)Nc1cc(Sc2ccccc2)ccc1N=C(NC(=O)OC)NC(=O)OC
7. O=S(=O)(O)O

Given back:
1. 447 nM (active)
2. 4470 nM (active)
3. inactive
4. inactive
5. 891 nM (active)
6. inactive
7. inactive

Asked: Value lookup for Potency; key = COC(C(=O)C(O)C(C)O)C1Cc2cc3cc(OC4CC(OC5CC(O)C(O)C(C)O5)C(O)C(C)O4)c(C)c(O)c3c(O)c2C(=O)C1OC1CC(OC2CC(OC3CC(C)(O)C(O)C(C)O3)C(O)C(C)O2)C(O)C(C)O1 (centres undefined)
Given back: 501 nM (active)

* * *

Target: Cytochrome P450 2C9 (Homo sapiens)
Assay: Cytochrome P450 family 2 subfamily C member 9 (CYP2C9) small molecule antagonists: luciferase biochemical (cell-free) qHTS assay (AID 1645842); also: nearly all actives have a fitted effect of over 55% in size
Conditions: P450-Glo CYP2C9 enzyme assay, luciferin luminescence; series mostly up to 57.4 µM
Records with an inconclusive call do not appear. The source made the active and inactive calls. Calls come from the whole dose curve; as a rule, active = well fitted inhibition curve with a large enough effect in the repeat runs; inconclusive = weak or mixed curves; inactive = no such curve, though single readings can be large or run the other way.
Answer with one of the outcomes given here: t (active), f (inactive)

Asked: Record request — test call for `CN(C)c1cccc(-c2c3c(=O)n(-c4ccccc4Cl)[nH]c3cc(=O)n2C)c1`
Given back: t

Asked: Input CCOc1ccc(C(Nc2ccccn2)c2ccc3ccc(C)nc3c2O)cc1C (stereo not given)
Given back: t

Asked: Input `CO[C@@H](Cc1ccc(OCCc2nc(-c3ccccc3)oc2C)c2ccsc12)C(=O)O`
Given back: t

Asked: Input `Cc1cccc(-c2[nH]c(CNc3ccccc3F)nc2-c2ccc3ncnn3c2)n1`
Given back: t

Asked: Input `CCOC(=O)c1c(C)nn(-c2cccc([N+](=O)[O-])c2)c1C`
Given back: t

Continuing:
Asked: Record request — test call for `CCn1c2ccccc2c2cc(CNC)ccc21`
Given back: f

Asked: Input `Cc1nc2c(-c3cnc(N)nc3)nc(N3CCOCC3)nc2n1C(C)C`
Given back: t

Asked: Input `CCOc1nc2cccc(C(=O)OCc3oc(=O)oc3C)c2n1Cc1ccc(-c2ccccc2-c2noc(O)n2)cc1`
Given back: t

Asked: Input `O=C(c1ccccn1)c1cnn2c(-c3ccncc3)ccnc12`
Given back: t

Asked: Input CCCCC(CC)COC(=O)CC(C(=O)OCC(CC)CCCC)S(=O)(=O)O (stereo not given)
Given back: f

* * *

Test system: CP262
Experiment: qHTS profiling for inhibitors of Plasmodium falciparum proliferation (AID 504749); also: nearly all actives have a fitted effect of over 60% in size
Details: P. falciparum in erythrocytes, SYBR Green DNA, 72 h; series mostly up to 28.7 µM
Inconclusive results are not listed. Active and inactive are the calls of the source. The call rests on the fitted dose curve; in most records, active means well fitted inhibition curve with a large enough effect; inconclusive means small, poorly fitted or top-dose-only effect; inactive means flat fitted curve, though single readings scatter.
Answer with one of the outcomes given here: True (active), False (inactive)

Asked: Record request — test call for `IC(I)I`
Given back: False

Asked: Input `CCCCC/C=C\C/C=C\CCCCCCCC(=O)O`
Given back: False

Asked: Input `Cc1cn([C@H]2C[C@H](O)[C@@H](CO)O2)c(=O)[nH]c1=O`
Given back: False

Asked: Input CC1=CCC(C(C)(C)O)CC1 (centres undefined)
Given back: False

Asked: Input `CCOC(C)=O`
Given back: False

Continuing:
Asked: Record request — test call for CO[C@H](C(=O)[C@@H](O)[C@@H](C)O)C1Cc2cc3cc(O[C@H]4C[C@@H](O[C@H]5C[C@@H](O)[C@H](O)[C@@H](C)O5)[C@@H](O)[C@@H](C)O4)c(C)c(O)c3c(O)c2C(=O)[C@H]1O[C@H]1C[C@@H](O[C@H]2C[C@@H](O[C@H]3C[C@](C)(O)[C@H](O)[C@@H](C)O3)[C@H](O)[C@@H](C)O2)[C@H](O)[C@@H](C)O1 (some centres undefined)
Given back: True

Asked: Input `CCCCCCCCCCCCCC[n+]1ccc(C)cc1`
Given back: False

Asked: Input Cc1ccccc1OCC(O)CNCCOc1ccc(C(N)=O)cc1 (centres undefined)
Given back: False

Asked: Input CCC(=O)NCCC1CCc2ccc3c(c21)CCO3 (centres undefined)
Given back: False

* * *

Experiment: Primary fluorescence-based thiol-reactive (MSTI) qHTS assay for identification of artifact compounds. (AID 1845221); also: nearly all actives have a fitted effect of over 65% in size
Conditions: MSTI thiol-reactivity probe, 1 h; series mostly up to 53.8 µM
Inconclusive results are not listed. The source made the active and inactive calls. The call rests on the fitted dose curve; in most records, active means well fitted inhibition curve with a large enough effect; inconclusive means small, poorly fitted or top-dose-only effect; inactive means no such curve, though single readings can be large or run the other way.
Answer with one of the outcomes given here: T = active, F = inactive

Some solved entries appear below for comparison.
Asked: Record request — test call for CC(C)C1=CC2=CCC3[C@](C)(CCC[C@@]3(C)C(=O)O)C2CC1O (stereo partly drawn)
Given back: F

Asked: Input OC1COC(OCC2OC(OCCc3ccccc3)C(O)C(O)C2O)C(O)C1O (stereo not drawn)
Given back: T

Asked: Input `COc1cc([C@H]2OC[C@@H]3[C@@H](c4ccc(O[C@@H]5O[C@H](CO)[C@@H](O)[C@H](O)[C@H]5O)c(OC)c4)OC[C@]23O)ccc1O`
Given back: F

Asked: Input `Cc1cccc(-c2[nH]c(CNc3ccccc3F)nc2-c2ccc3ncnn3c2)n1`
Given back: F

Asked: Input C/C(=C\CCC(C(=O)O)C1CCC2(C)C3=C(CCC12C)C1(C)CCC(=O)C(C)(C)C1CC3)C(=O)O (stereo not drawn)
Given back: F

Continuing:
Asked: Record request — test call for C/C(=C\CCC(C)(O)c1ccc(C)cc1)C(=O)O (stereo not drawn)
Given back: F

Asked: Input CC(C)(OC1OC(CO)C(O)C(O)C1O)C1CCC(O)(CO)C2CC(O)C(C)(O)C2C1 (stereo not drawn)
Given back: F

Asked: Input `C=C1[C@H]2[C@H](O[C@@H]3O[C@H](COC(=O)/C=C/c4cc(OC)c(O)c(OC)c4)[C@@H](O)[C@H](O)[C@H]3O)OC=C(C(=O)O)[C@H]2C[C@@H]1O`
Given back: T
